Hello, the source for this data is patent US20250339531A1, in case you need it.

tested on: proteins that co-immunoprecipitated with DUX4-CTD constructs expressed in MB135 myoblasts; assay: LC-MS of proteins co-immunoprecipitated with DUX4-CTD (Table 1) and western validation; type: binding, human; parameters: key: peptide-spectrum matches (PSMs) per protein; settings: bait longCTD; experiment 3, IFNg + Dox
endpoint_label: 3. + IFNg + Dox longCTD
Enter a number only.

For P31947 (protein, UniProt P31947 1-248, looked up, full-length) MERASLIQKAKLAEQAERYEDMAAFMKGAVEKGEELSCEERNLLSVAYKNVVGGQRAAWRVLSSIEQKSNEEGSEEKGPEVREYREKVETELQGVCDTVLGLLDSHLIKEAGDAESRVFYLKMKGDYYRYLAEVATGDDKKRIIDSARSAYQEAMDISKKEMPPTNPIRLGLALNFSVFHYEIANSPEEAISLAKTTFDEAMADLHTLSEDSYKDSTLIMQLLRDNLTLWTADNAGEEGGEAPQEPQS , write its 3. + IFNg + Dox longCTD.
1
